Target: T1, recombinant HMG1 purified from E. coli as a calmodulin binding protein (CBP) fusion protein (human, UniProt A9RA84 1-215 (Papio anubis entry))
T1 sequence: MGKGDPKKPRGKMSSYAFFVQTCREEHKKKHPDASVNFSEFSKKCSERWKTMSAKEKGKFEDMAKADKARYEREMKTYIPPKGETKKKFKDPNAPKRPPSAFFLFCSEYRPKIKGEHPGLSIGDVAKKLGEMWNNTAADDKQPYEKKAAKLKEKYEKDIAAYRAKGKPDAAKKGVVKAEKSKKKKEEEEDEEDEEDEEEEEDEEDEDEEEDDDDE
Assay: cell-based or functional assay
measured.attribute: IC50, inhibition of HMG1 stimulated NO release from macrophages
Answer format: value, then unit.

Consider the reported IC50, inhibition of HMG1 stimulated NO release from macrophages for these binders:
anti-HMG1 antibody G20 (antibody, V domains shown) VH: EVQLLESGGGLVQPGGSLRLSCAASGFTFSWYDMFWVRQAPGKGLEWVSWISPSGGYTKYADSVKGRFTISRDNSKNTLYLQMNSLRAEDTAMYYCARSGLDYYDSSGYLDAFDIWGQGTMVTVSS VL: DIQMTQSPSSVSASVGDRVTITCRASQDVSIWLAWYQQKPGKAPKLLIFGASRLQSGVPSRFSGSRSGADFTLTIDSVQPEDFASYYCQQADSFPLTFGGGTKVEIK
20.4 µg/mL
anti-HMG1 antibody G16 (antibody, V domains shown) VH: EVQLLESGGGLVQPGGSLRLSCAASGFTFSWYKMTWVRQAPGKGLEWVSSISPSGGFTSYADSVKGRFTISRDNSKNTLYLQMNSLRAEDTAVYYCARDLDIRHAFDIWGQGTMVTVSS VL: DIQMTQSPGTLSLSPGESGTLSCRASESVSSRHFAWYQQKPGQAPRLLIYGASSRPTGIPDRFSGSGSGTDFTLTLSRLEPEDFAVYFCQYYGSSPYTFGGGTKVEMK
22 µg/mL
anti-HMG1 antibody S17 (antibody, V domains shown) VH: EVQLLESGGGLVQPGGSLRLSCAASGFTFSYYDMHWVRQAPGKGLEWVSRISPSGGYTWYADSVKGRFTISRDNSKNTLYLQMNSLRAEDTAVYYCTRGRYTSGWHEYFDPWGQGTLVTVSS VL: DIQMTQSPSSLSASVGDRVTITCRASQSIGTYLNWYQQKPGTAPKVLIYAASSLQSGVPSRFSGSGSGTDFTLTISSLQPEDFSTYYCQQSYNTPRTFGQGTKLEIK
41.7 µg/mL

query: Dear colleague, I am looking for the recorded IC50, inhibition of HMG1 stimulated NO release from macrophages of the following binder: anti-HMG1 antibody E11 (antibody, V domains shown) VH: EVQLLESGGGLVQPGGSLRLSCAASGFTFSRYQMNWVRQAPGKGLEWVSSISPSGGHTHYADSVKGRFTISRDNSKNTLYLQMNSLRAEDTAVYYCAKDGRQGKISTVDHWGQGTLVTVSS VL: DIQMTQSPGTLSLSPGERATLSCRASQSVRSNFLAWYQQKPGQAPRLLIYGASRRASGIPDRFSGSGFGADFTLSISRLEPEDFAVYYCQQYGSSPNTFGQGSRVEIK
result: 101 µg/mL
